Where do the numbers come from? From patent US20250361322A1.

- Target or system: T1, E. coli-derived TF (human (Example 17 does not restate the …, UniProt P13726 33-251))
- T1 construct: also called E. coli-derived TF-His; E. coli-derived TF protein
- Run description: protein ELISA, plate coated with E. coli-derived TF-His, antibody titrated, HRP secondary, luminescence
Quantity kind: pEC50
Recall that pEC50 is obtained by taking minus log10 of the concentration measured in molar.

Challenge: Report pEC50 for 25G1 (antibody, human IgG1, V domains shown, Human IgG1; also called antibody designated 25G1) VH: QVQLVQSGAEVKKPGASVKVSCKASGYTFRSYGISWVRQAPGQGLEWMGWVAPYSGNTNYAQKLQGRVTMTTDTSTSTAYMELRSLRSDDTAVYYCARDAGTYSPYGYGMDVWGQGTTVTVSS VL: DIQMTQSPSTLSASVGDRVTITCRASHSIDSWLAWYQQKPGKAPKLLIYKASYLESGVPSRFSGSGSGTEFTLTISSLQPDDFATYYCQLFQSLPPFTFGGGTKVEIK please.
Response given: 9.51
